Measured values drawn from paper PMC10786919 for this set.

assay: EPSA; format: physicochemical
Positions of bridges follow the written chain, without caps; N, C: chain ends. Non-standard residues stand in square brackets, D forms with d. Residues, ends and D or L forms follow the SMILES beside them. Lys(N3) = [N-]=[N+]=NCCCC[C@H](N)C(=O)O; R8 = C=CCCCCCC[C@@](C)(N)C(=O)O; Cba = N[C@@H](CC1CCC1)C(=O)O; S5 = C=CCCC[C@](C)(N)C(=O)O
property: EPSA

Fill in: EPSA of CC(C)C[C@H](NC(=O)[C@@H](N)CCCCN=[N+]=[N-])C(=O)N[C@H](C(=O)N[C@@H](Cc1ccccc1)C(=O)N[C@]1(C)CCCCCCC=CCCC[C@@](C)(C(=O)N[C@@H](CCC(=O)O)C(N)=O)NC(=O)[C@H](CC2CCC2)NC(=O)[C@H](CCC(N)=O)NC(=O)[C@H](C)NC(=O)[C@H](Cc2c[nH]c3ccccc23)NC(=O)[C@H](Cc2ccc(O)cc2)NC(=O)[C@H](CCC(=O)O)NC1=O)[C@@H](C)O [MP-4009] (H-[Lys(N3)]LTF[R8]EYWAQ[Cba][S5]E-NH2; staple 5-12) is ___
Poorly Behaved

Same for "CC(=O)N[C@@H](CCC(=O)O)C(=O)N[C@@H](CCCCN=[N+]=[N-])C(=O)NCCCCCC(=O)N[C@H](C(=O)N[C@@H](CO)C(=O)N[C@@H](Cc1ccccc1)C(=O)N[C@]1(C)CCCCCCC=CCCC[C@@](C)(C(N)=O)NC(=O)[C@H](CC(C)C)NC(=O)[C@H](CC(C)C)NC(=O)[C@H](C)NC(=O)[C@H](Cc2c[nH]c3ccccc23)NC(=O)[C@H](Cc2ccc(O)cc2)NC(=O)[C@H](CCC(=O)O)NC1=O)[C@@H](C)O"
Poorly Behaved
